Please find below IC50 data on Interstitial collagenase (Homo sapiens) compiled from the literature.

Sample answers from the record:
COCCOC(=O)N1CCN(S(=O)(=O)c2ccc(Oc3ccc4c(c3)CCCC4)nc2)[C@@H](C(=O)NO)C1	0.05 to 1 µM
CC(C)(C)OC(=O)N1CCN(S(=O)(=O)c2cc(F)c(Oc3ccc(F)cc3)c(F)c2)[C@@H](C(=O)NO)C1	1 to 20 µM
O=C(OCCCN([C@]1(C(=O)O)C[C@H]1c1ccccc1)S(=O)(=O)c1ccc(-c2ccc(Cl)cc2)s1)N1CCOCC1	≥ 10 µM

# return IC50 for O=C(O)[C@@H]1[C@@H](Cn2nnc3ccc(C(F)(F)F)cc3c2=O)CC[C@H]1C(=O)c1cc2cc(OCCc3ccccc3)ccc2o1 (single isomer, unassigned; enantiomer 2) , test system: Interstitial collagenase (Homo sapiens)
> 40 µM

State IC50 (Interstitial collagenase (Homo sapiens)) of O=C(NO)[C@H]1CN(C(=O)OCCN2CCCC2)CCN1S(=O)(=O)c1cc(F)c(Oc2ccc(Cl)cc2)c(F)c1 .
> 20 µM

Send back Interstitial collagenase (Homo sapiens) IC50 of CN(c1cccc(/C(=C\C(=O)NO)c2ccccc2)c1)S(=O)(=O)c1cccc2cccnc12 only.
> 10 µM

----------
The entries below pair compounds with IC50 values for Interstitial collagenase (Homo sapiens), as found in several publications.

// solved cases for IC50 follow
Cc1ccccc1[C@@H]1C[C@@]1(C(=O)O)N(CC(=O)O)S(=O)(=O)c1ccc(-c2ccc(Cl)cc2)cc1 (relative stereo)	≥ 10 µM
O=C(O)c1nccn1CCN([C@]1(C(=O)O)C[C@H]1c1ccccc1)S(=O)(=O)c1ccc(-c2ccc(Cl)cc2)cc1 (relative stereo)	≥ 10 µM
COC(=O)C(C(=O)/C=C/c1ccc(O)cc1)C(=O)/C=C/c1ccc(O)cc1	76.3 µM

Let's switch to this compound now.
Lab note: record IC50 of O=C(O)[C@H]1[C@H](Cn2nnc3ccccc3c2=O)CC[C@@H]1C(=O)c1ccc(OCc2cccc(Cl)c2)cc1 (racemic) tested on Interstitial collagenase (Homo sapiens).
> 40 µM

----------
Study the reported IC50 values for Interstitial collagenase (Homo sapiens, UniProt P03956) given below; they originate from different publications.

A selection of reference data follows.
O=C(O)[C@H](CCc1ccccc1)NS(=O)(=O)c1ccc2c(c1)Cc1ccccc1O2	> 100 µM
CC(C)[C@H](Cc1ccc(C(F)(F)F)cc1)C(=O)NC[C@@]1(C2CC2)NC(=O)NC1=O	56.8 µM
Cc1ccc2nnn(C[C@@H]3CC[C@H](C(=O)c4ccc(OCc5ccccc5)cc4)[C@H]3C(=O)O)c(=O)c2c1 (racemic)	5.7 µM

Find IC50 for COC(=O)Nc1cccc(COc2ccc(C(=O)[C@@H]3CC[C@H](Cn4nnc5ccc(C(F)(F)F)cc5c4=O)[C@H]3C(=O)O)cc2)c1 (stereo in doubt) on Interstitial collagenase (Homo sapiens, UniProt P03956) and write it down.
5.4 µM

GET IC50 where system = Interstitial collagenase (Homo sapiens, UniProt P03956) and item = O=C(O)[C@@H]1[C@@H](Cn2nnc3ccc(C(F)(F)F)cc3c2=O)CC[C@H]1C(=O)c1ccc(OCc2cccc(C(F)(F)F)c2)cc1 (single isomer, unassigned)
37 µM

----------
pIC50: −log10 of the molar value.
From various publications: pIC50 for Interstitial collagenase (Homo sapiens, UniProt P03956).

O=C(O)CCCN([C@]1(C(=O)O)C[C@H]1c1ccccc1)S(=O)(=O)c1ccc(-c2ccc(Cl)cc2)cc1 (relative stereo)	≤ 5.00
O=C1NC(=O)[C@](CNC(=O)[C@@H](Cc2ccc(C(F)(F)F)cc2)C2CC2)(C2CC2)N1	4.41
CN1CC2(c3ccccc3)CC2(C(=O)O)N(S(=O)(=O)c2ccc(-c3ccc(Cl)cc3)s2)CC1=O (stereo not shown)	≤ 5.00

Answer with reported pIC50 of O=C(CC(CCn1nnc2ccccc2c1=O)C(=O)O)c1cc2cc(OCCc3ccccc3Cl)ccc2o1 (racemic)
< 4.40

----------
pIC50 for Interstitial collagenase (Homo sapiens) - collated from the literature.
pIC50: −log10 of the molar value.

Below, each entry is followed by its recorded pIC50 result.
CS(=O)(=O)Nc1cccc(CN([C@]2(C(=O)O)C[C@H]2c2ccccc2)S(=O)(=O)c2ccc(-c3ccc(Cl)cc3)cc2)c1 (relative stereo)	≤ 5.00
CCCCCOc1ccc2cc(C(=O)CC(CCn3nnc4ccccc4c3=O)C(=O)O)sc2c1 (racemic)	< 4.40
O=C(O)[C@@]1(N(CCCO)S(=O)(=O)c2ccc(-c3ccc(Cl)cc3)s2)C[C@H]1c1ccccc1	≤ 5.00
O=C(O)CN([C@]1(C(=O)O)C[C@H]1c1cccc(Oc2ccccc2)c1)S(=O)(=O)c1ccc(-c2ccc(Cl)cc2)cc1 (relative stereo)	≤ 5.00
O=C(CC(CCn1nnc2ccccc2c1=O)C(=O)O)c1noc2cc(OCc3cccnc3)ccc12 (racemic)	< 4.40
O=C(O)CN([C@]1(C(=O)O)C[C@H]1c1cc(Cl)ccc1Cl)S(=O)(=O)c1ccc(-c2ccc(Cl)cc2)cc1 (relative stereo)	≤ 5.00

State pIC50 (Interstitial collagenase (Homo sapiens)) of CC(C)[C@@H](NS(=O)(=O)c1ccc(C#Cc2ccc3ccccc3c2)cc1)C(=O)O .
< 5.00

Identify measured pIC50 obtained with Interstitial collagenase (Homo sapiens) for CN1CCN(C(=O)CN([C@@]2(C(=O)O)C[C@@H]2c2ccccc2)S(=O)(=O)c2ccc(-c3ccc(Cl)cc3)s2)CC1 .
≤ 5.00

Answer briefly: pIC50 recorded on Interstitial collagenase (Homo sapiens) for CC(C)(C)OC(=O)N1CCC([C@H]2C[C@]2(C(=O)O)N(Cc2cccc(C(=O)O)c2)S(=O)(=O)c2ccc(-c3ccc(Cl)cc3)cc2)CC1 (relative stereo)
≤ 5.00

----------
pIC50: −log10 of the molar value.
Compiled notes: published pIC50 values involving UniProt P03956.

O=C1CN(S(=O)(=O)c2ccc(-c3ccc(Cl)cc3)s2)C2(C(=O)O)CC2(c2ccccc2)CN1 (stereo not drawn)	≤ 5.00

Fill in pIC50 for O=C(O)[C@H]1[C@H](Cn2nnc3ccc(C(F)(F)F)cc3c2=O)CC[C@@H]1C(=O)c1cc2cc(OCCc3ccccc3)ccc2o1 (racemic) tested with UniProt P03956.
< 4.40

Provide UniProt P03956 pIC50 reading for O=C(O)[C@H]1[C@H](Cn2nnc3ccc(C(F)(F)F)cc3c2=O)CC[C@@H]1C(=O)c1ccc(OCc2cccc(C(F)(F)F)c2)cc1 (racemic) .
< 4.40

Quote UniProt P03956 pIC50 for entry O=C(O)[C@H](Cc1ccccc1)NS(=O)(=O)c1ccc(C#Cc2ccc3ccccc3c2)s1 .
< 5.00

----------
Literature pIC50 values, system: Interstitial collagenase (Homo sapiens, UniProt P03956).
pIC50: −log10 of the molar value.

O=C(CC(CCn1nnc2ccccc2c1=O)C(=O)O)c1cc2cc(OCC3CCCCC3)ccc2o1 (racemic)	< 4.40
CCCC(CCC)C(=O)N1CCN(S(=O)(=O)c2cc(F)c(Oc3ccc(Cl)cc3)c(F)c2)[C@@H](C(=O)NO)C1	< 4.70

Report its pIC50 with Interstitial collagenase (Homo sapiens, UniProt P03956) as the test system: Cc1cccn(CC2(c3ccc(Oc4ccccc4)cc3)NC(=O)NC2=O)c1=O (stereo not shown)
< 4.00

Name the value of pIC50 reported for O=C(NO)[C@H]1CN(C(=O)N2CCOCC2)CCN1S(=O)(=O)c1ccc(Oc2ccc(F)cc2)cc1 when tested on Interstitial collagenase (Homo sapiens, UniProt P03956).
> 7.30

Please report pIC50 with Interstitial collagenase (Homo sapiens, UniProt P03956) for item O=C(O)CN([C@]1(C(=O)O)C[C@H]1c1cccc(C(F)(F)F)c1)S(=O)(=O)c1ccc(-c2ccc(Cl)cc2)cc1 (relative stereo) .
≤ 5.00

State the measured pIC50 (Interstitial collagenase (Homo sapiens, UniProt P03956)) of Cc1cccn(CC2(c3ccc(F)c(F)c3)NC(=O)NC2=O)c1=O (stereo not shown)
< 4.00

// fetch pIC50 for O=C(O)c1cc(CN(C2(C(=O)O)CC2c2ccccc2)S(=O)(=O)c2ccc(-c3ccc(Cl)cc3)cc2)on1 (stereo not shown) ; system: Interstitial collagenase (Homo sapiens, UniProt P03956)
≤ 5.00

----------
pIC50: −log10 of the molar value.
A compilation of pIC50 values for Interstitial collagenase (Homo sapiens, UniProt P03956) from the published literature.

COc1ccc(S(=O)(=O)N(c2cccc(/C(=C\C(=O)NO)c3cccnc3)c2)C(C)C)cc1	< 5.00

Tell me its pIC50 on Interstitial collagenase (Homo sapiens, UniProt P03956): O=C(CC(CCn1nnc2ccccc2c1=O)C(=O)O)c1noc2cc(OCCc3ccccc3)ccc12 (racemic)
< 4.40

Please report pIC50 with Interstitial collagenase (Homo sapiens, UniProt P03956) for item CC(C)COc1cccc([C@@H]2C[C@@]2(C(=O)O)N(CC(=O)O)S(=O)(=O)c2ccc(-c3ccc(Cl)cc3)cc2)c1 (relative stereo) .
≤ 5.00

// fetch pIC50 for O=C(OCCN([C@]1(C(=O)O)C[C@H]1c1ccccc1)S(=O)(=O)c1ccc(-c2ccc(Cl)cc2)s1)N1CCOCC1 ; system: Interstitial collagenase (Homo sapiens, UniProt P03956)
≤ 5.00

Quote pIC50 with test system Interstitial collagenase (Homo sapiens, UniProt P03956) for O=C(O)c1cnn(CCN(C2(C(=O)O)CC2c2ccccc2)S(=O)(=O)c2ccc(-c3ccc(Cl)cc3)cc2)c1 (stereo not drawn)
≤ 5.00

State pIC50 (Interstitial collagenase (Homo sapiens, UniProt P03956)) of CC(C)(C)OC(=O)N1CCC(Oc2cccc([C@H]3C[C@]3(C(=O)O)N(CC(=O)O)S(=O)(=O)c3ccc(-c4ccc(Cl)cc4)cc3)c2)CC1 (relative stereo) .
≤ 5.00
